Origin of the recorded values: PubChem BioAssay

assay: probe aCHRDL2 binding to arrayed compounds – biochemical, biotinylated probe, 635/667 nm fluorescence, primary screen (AID 1100); details: small-molecule microarray, higher = more signal
testReadout: composite z-score
Reply briefly: the number, and no unit.

Previously resolved entries follow.
C=CCNC(=O)[C@H]1[C@@H]2C(=O)O[C@@H](c3ccccc3)[C@@H](c3ccccc3)N2[C@@H](c2ccc(O)cc2)[C@]12C(=O)N(C(=O)OCCOC)c1ccc(C#CC3(O)CCCCCC3)cc12	0.468
CC(C)CCC[C@@H](C)[C@H]1CC[C@@]2(C)C3=C(CC[C@]12C)[C@@]1(C)CC[C@H](OC(=O)C(C)(C)C)C(C)(C)C1CC3 (some centres undefined)	-0.636
Cc1ccc(S[C@]2(C(=O)NCc3ccccc3)CC(=O)N(C3Cc4ccccc4C3)[C@@H]2c2ccc(CO)cc2I)cc1	0.995

Okay, now this compound:
Input line: Item COCCCNC(=O)[C@]1(Cc2ccccc2CN=[N+]=[N-])N=C(c2ccc(OCCCO)cc2)O[C@@H]1c1ccccc1CN=[N+]=[N-] : provide composite z-score
Output line: 1.25

###

Catalogue of compounds with associated composite z-score
molecular target: Dickkopf-related protein 1 (Homo sapiens); experiment: small molecules binding DKK1 protein – biochemical, small-molecule microarray, 635 nm fluorescence scan, primary screen (AID 1106); details: higher = more signal;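 note: score merges emission near 667 nm with signal to noise over three replicate slides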
Reply briefly: the number, and no unit.

[N-]=[N+]=Nc1ccccc1[C@H]1OC(c2ccc(OCCCO)cc2)=N[C@@]1(Cc1ccccc1)C(=O)NCc1ccccc1	0.865

Input line: Item O=[N+]([O-])c1ccc(C[n+]2ccc(-c3ccc(CO)cc3)cc2)o1 : provide composite z-score
Output line: 0.253

Input line: Item COCC(=C=CC[C@@H](O)c1ccccc1OCCO)C[C@@H](O)c1ccccn1 : provide composite z-score
Output line: 0.0514

Input line: Item [N-]=[N+]=NCc1ccccc1[C@H]1OC(c2ccc(OCCCO)cc2)=N[C@@]1(Cc1ccccc1N=[N+]=[N-])C(=O)NCCN1CCOCC1 : provide composite z-score
Output line: 0.136

Input line: Item C[N+](C)(C)CCCCCCNC(=O)[C@@H]1C[C@@H]2C(=O)NCC(=O)N2[C@@H]1c1ccc(O)cc1 : provide composite z-score
Output line: 1.19

Input line: Item CC(C)CN1C(=O)[C@@]2(Cc3ccccc31)c1ccccc1C(=O)N(Cc1ccccc1)[C@H]2c1ccc(CO)cc1 : provide composite z-score
Output line: -0.952

Input line: Item COC(=O)[C@@]1(Cc2ccccc2N=[N+]=[N-])N=C(c2ccc(OCCCO)cc2)O[C@H]1c1ccccc1 : provide composite z-score
Output line: -0.385

Input line: Item COCCCNC(=O)[C@]1(Cc2ccccc2)N=C(c2ccc(OCCCO)cc2)O[C@@H]1c1ccccc1N=[N+]=[N-] : provide composite z-score
Output line: -0.267

###

Catalogue of compounds with associated composite z-score
experiment: binders of probe aHhip on microarray, primary screen, stem cell growth factor project, biochemical, small-molecule microarray, fluorescence 635/667 (AID 1087); details: higher = more signal;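 note: score merges spot fluorescence at 667nm with spot signal to noise ratio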
Reply briefly: the number, and no unit.

Previously resolved entries follow.
COc1ccc(C#Cc2ccc3c(c2)[C@]2(C(=O)N3)[C@H](C(N)=O)[C@H]3C(=O)O[C@H](c4ccccc4)[C@H](c4ccccc4)N3[C@@H]2c2ccc(O)cc2)cc1	-0.0581
COCCOC(=O)N1C(=O)[C@@]2(c3cc(C#CCNC(N)=O)ccc31)[C@H](C(N)=O)[C@H]1C(=O)O[C@H](c3ccccc3)[C@H](c3ccccc3)N1[C@@H]2c1ccc(OCCO)cc1	-0.0427

Okay, now this compound:
Input line: Item C=CCNC(=O)[C@H]1[C@@H]2C(=O)O[C@@H](c3ccccc3)[C@@H](c3ccccc3)N2[C@@H](c2ccc(O)cc2)[C@]12C(=O)N(C(=O)OCCOC)c1ccc(C#CC3(O)CCCCCC3)cc12 : provide composite z-score
Output line: 0.142

###

Catalogue of compounds with associated composite z-score
test: small molecules captured by biotinylated probe aFST – biochemical, small-molecule microarray, fluorescence 635/667, stem cell growth factor project, primary screen (AID 1086); conditions: higher = more signal;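 note: score merges 667 nm fluorescence with signal-to-noise of each printed compound spot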

Previously resolved entries follow.
CN(C)C(=O)[C@@]1(CCC(=O)OC(C)(C)C)N=C(c2ccc(OCCCO)cc2)O[C@H]1c1ccccc1N=[N+]=[N-]	1.79
C=C(/C(=C/C[C@@H](OC(C)=O)c1ccccc1OCCO)c1cnc2ccccc2c1)C(C)C	0.0287
COCCOC(=O)N1C(=O)[C@@]2(c3cc(C#CC4(O)CCCCCC4)ccc31)[C@H](C(=O)NC[C@H](O)c1ccccc1)[C@H]1C(=O)O[C@H](c3ccccc3)[C@H](c3ccccc3)N1[C@@H]2c1ccc(OCCO)cc1	0.409
C=CCOC(=O)[C@@H]1[C@H]2C(=O)O[C@H](c3ccccc3)[C@H](c3ccccc3)N2[C@H](c2ccc(OCCOC(=O)[C@@H]3C[C@@H]4C(=O)N5CCC[C@H]5C(=O)N4[C@@H]3c3cccc(OCCO)c3)cc2)[C@@]12C(=O)Nc1ccc(I)cc12	0.252
COC(=O)[C@@]1(Cc2ccc(OC)cc2)[C@H]2c3cc(C(=O)N4CCCC4)n(CCF)c3C[C@H]2CN1C(=O)c1ccccc1	3.23

Input line: Item CC[C@@H]1[C@@H]2C3C(=O)N(CC)C(=O)C3CC(=O)[C@@H]2[C@H](c2ccc(C)cc2)N1S(=O)(=O)c1ccc(C)cc1 (stereo partly drawn) : provide composite z-score
Output line: 0.635

Input line: Item N#Cc1ccc(NN2C(C(O)c3ccco3)C=CC3C(=O)N(c4ccccc4)C(=O)C32)cc1 (stereo not drawn) : provide composite z-score
Output line: 0.39

###

experiment: changes in parasitized red cell lysis, either direction – P. falciparum Indochina, OD700, 3 h, PSAC antagonist project, primary screen (AID 1156); conditions: P. falciparum-infected erythrocytes, osmotic lysis, higher = more signal, called active from +8 up or from −8 down
# cutoff 0.4 applies to z-score; >= gives Y, < gives N

COCCOC(=O)N1C(=O)[C@@]2(c3cc(C#Cc4ccc(OC)cc4)ccc31)[C@H](C(N)=O)[C@H]1C(=O)O[C@H](c3ccccc3)[C@H](c3ccccc3)N1[C@@H]2c1ccc(OCCO)cc1	Y

Input line: # check: z-score of C=CC[C@]1(C(=O)NCC(O)CO)N=C(c2ccc(OCCCO)cc2)O[C@H]1c1ccccc1N=[N+]=[N-] (some centres not stated) is greater than or equal to 0.4
Output line: Y

Input line: # check: z-score of COC(=O)[C@@]1(Cc2ccccc2)[C@H]2c3cc(C(=O)N4CCCC4)n(Cc4ccccc4)c3C[C@H]2CN1C(=O)c1ccccc1 is greater than or equal to 0.4
Output line: N

###

system: Lefty1; assay: Lefty1 protein binding to printed compounds – biochemical, small-molecule microarray, 635/667 nm fluorescence, primary screen (AID 1139); settings: fluorescence 635/667, higher = more signal
testReadout: composite z-score
Reply briefly: the number, and no unit.

Previously resolved entries follow.
C[N+](C)(C)CCCCNC(=O)[C@H]1C[C@H]2C(=O)NCC(=O)N2[C@H]1c1ccc(O)cc1	1.49
OCc1ccc(-c2cc[n+](Cc3cccc(OC(F)(F)F)c3)cc2)cc1	1.47
NC(=O)NCC#Cc1ccc2c(c1)[C@]1(C(=O)N2)[C@H](c2ccc(OCCO)cc2)N2[C@H](c3ccccc3)[C@H](c3ccccc3)OC(=O)[C@H]2[C@@H]1C(=O)N1CCCCCCC1	1.64
CCOC(=O)C1=CC[C@@H](c2cccc(Br)c2)N(S(=O)(=O)c2ccc(C)cc2)[C@H]1c1ccc([N+](=O)[O-])cc1	0.726
COCCCNC(=O)[C@]1(Cc2ccccc2)N=C(c2ccc(OCCCO)cc2)O[C@@H]1c1ccccc1N=[N+]=[N-]	0.276

Input line: Item COC(=O)C(CC#Cc1ccc2c(c1)[C@]1(C(=O)N2)[C@H](c2ccccc2OCCO)N2[C@H](c3ccccc3)[C@H](c3ccccc3)OC(=O)[C@H]2[C@@H]1C(=O)Nc1nc2ccccc2s1)C(=O)OC : provide composite z-score
Output line: 0.9

Input line: Item C/C=C/[C@@H](CCn1cc([C@H](O)c2ccccc2)nn1)[Si](C)(C)c1ccc(OC)cc1 : provide composite z-score
Output line: -0.337

###

assay: small molecules captured by biotinylated probe aFST – biochemical, small-molecule microarray, fluorescence 635/667, stem cell growth factor project, primary screen (AID 1086); conditions: higher = more signal;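 note: score merges 667 nm fluorescence with signal-to-noise of each printed compound spot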
testReadout: composite z-score

Previously resolved entries follow.
C[N+](C)(C)CCCCCCNC(=O)[C@H]1C[C@H]2C(=O)N3CCC[C@H]3C(=O)N2[C@H]1c1cccc(OCCO)c1	0.301
C=CCNC(=O)[C@@H]1[C@H]2C(=O)O[C@H](c3ccccc3)[C@H](c3ccccc3)N2[C@H](c2ccc(O)cc2)[C@@]12C(=O)Nc1ccc(C#CCCO)cc12	-1.05
C[C@]12C(=O)N(CCCCCO)[C@@H]3C(=O)N(c4ccc(Cl)cc4)CC=CC31O[C@@H]1/C=C\CCCOC(=O)C12 (some centres undefined)	-0.733

Okay, now this molecule:
Input line: Item O=C(O)[C@]1(CCS(=O)(=O)c2ccccc2)N=C(c2ccc(OCCCO)cc2)O[C@@H]1c1ccccc1 : provide composite z-score
Output line: 0.914
